Test system: NCI-H460
Test: NCI tumour cell line growth inhibition, 48 h
Active and inactive are the calls of the source. Cut-off read from the data, not from the text of the source: active = GI50 up to about 1.1 µM and inactive = higher.
metricName: GI50

>>> measvalue("Cc1cc2c(cc1C)[n+]([O-])c(C#N)c(Cl)[n+]2[O-]")
"11.7 µM (inactive)"
>>> measvalue("COc1ccc2c(c1)-c1[nH]c3ccccc3c1CC2")
"15.6 µM (inactive)"
>>> measvalue("O=c1c(C(c2ccco2)c2c(O)oc3ccccc3c2=O)c(O)oc2ccccc12")
"> 100 µM (inactive)"
>>> measvalue("COc1cc(/C=C2\\N=C(c3ccccc3)N(c3cc4cc(Sc5ccccc5)ccc4[nH]3)C2=O)cc(OC)c1OC")
"14.3 µM (inactive)"
>>> measvalue("c1ccc(C2(c3ccccc3)S/C(=C3/SC(c4ccccc4)(c4ccccc4)c4ccccc43)c3ccccc32)cc1")
"> 100 µM (inactive)"
>>> measvalue("CC(=O)OCC1OC(n2c3c(c(-c4ccco4)c(C#N)c2=S)CCCC3)C(OC(C)=O)C(OC(C)=O)C1OC(C)=O (stereo not given)")
"22.9 µM (inactive)"
>>> measvalue("N/C(=N\\c1ccc(Cl)c(Cl)c1)c1ccccc1N")
"34.8 µM (inactive)"
>>> measvalue("O=c1c2c(no[n+]2[O-])c2ccccc2n1-c1ccccc1")
"8.2 µM (inactive)"
>>> measvalue("NC1=C(c2nc(-c3ccccc3)cs2)C(c2ccco2)c2c(c3ccccc3oc2=O)O1 (stereo not given)")
"> 100 µM (inactive)"
>>> measvalue("O=C1C(Cl)C2(CC(/C=C/c3ccccc3)=NN2c2cccc(S(=O)(=O)O)c2)N1c1nc2ccccc2s1 (stereo not given)")
"22.8 µM (inactive)"
>>> measvalue("CC1(C)CCC[C@]2(C)[C@@H]1CC[C@@]13O[C@@H]1C1=C(CO)C(=O)O[C@]14O[C@@H]4[C@@H]23")
"14.9 µM (inactive)"
>>> measvalue("CC(C)C(C)/C=C\\C(C)C1CCC2C3=CC=C4CC(O)CCC4(C)C3CCC21C (stereo not given)")
"> 36.1 µM (inactive)"
>>> measvalue("CNC(=S)Nc1sc2c(c1C#N)CCCC2")
"> 75 µM (inactive)"
>>> measvalue("COc1ccccc1/C=C(\\C#N)c1ccccc1")
"23.8 µM (inactive)"
>>> measvalue("N#C[C@H](OC1OC(COC2OC(CO)C(O)C(O)C2O)C(O)C(O)C1O)c1ccccc1 (stereo not given in full)")
"> 250 µM (inactive)"
>>> measvalue("CC12CC(c3ccccc3O1)C(C(=O)Nc1ccc(F)cc1)C(=O)N2 (stereo not given)")
"89.7 µM (inactive)"
>>> measvalue("COc1cccc(NC(=O)/C(Cc2nc3ccccc3nc2C)=N/NC(=O)C[n+]2ccccc2)c1")
"66.4 µM (inactive)"
>>> measvalue("Cc1ccc2[nH]c(=N/c3ccccc3C)/c(=N\\c3ccccc3C)[nH]c2c1")
"17.3 µM (inactive)"
>>> measvalue("CC(C)=CC(=O)N(C)C1C2CN3CCC(O2)C13 (stereo not given)")
"> 100 µM (inactive)"
>>> measvalue("CC(CCOc1ccc2ccc(=O)oc2c1)C1=CC(=O)C(C)(C)O1 (stereo not given)")
"1.86 µM (inactive)"

###

Tested on: HCC 2998
Test: NCI tumour cell line growth inhibition, 48 h
Active and inactive are the calls of the source. Rule as the data show it: active = GI50 up to about 1.1 µM and inactive = higher.
metricName: GI50

>>> measvalue("CCCCN(CCCC)CC(=O)c1ccc2cc(Cl)c3ccccc3c2c1")
"32.1 µM (inactive)"
>>> measvalue("COC1=CC(=O)c2c(cc3c(c2O)-c2c(OC)cc4cc5c(c(O)c4c2OC(=O)CC(C)(O)C3)C(=O)CC(C)(O)C5)C1=O (stereo not given)")
"1.24 µM (inactive)"
>>> measvalue("O=c1cc2ccccc2nn1-c1ccccc1Cl")
"> 100 µM (inactive)"
>>> measvalue("C/C=C(\\CCOS(=O)(=O)c1ccc(C)cc1)[Si](C)(C)C")
"> 100 µM (inactive)"
>>> measvalue("N#C/N=C1\\NCCC(=O)N1CCc1c[nH]c2ccccc12")
"> 100 µM (inactive)"
>>> measvalue("COc1ccc2c(c1)OCCCN(C)OC2c1ccccc1 (stereo not given)")
"> 100 µM (inactive)"
>>> measvalue("Nc1nc(-[n+]2ccc(-c3ccncc3)cc2)nc(Cl)c1Cl")
"> 100 µM (inactive)"
>>> measvalue("COc1ccc2c(ccc3c(C(=O)NCCCN(C)CCCNC(=O)c4cn(C)c5c4ccc4cc(OC)ccc45)cn(C)c32)c1")
"1.61 µM (inactive)"
>>> measvalue("CCOC(OC1=C(C#N)CCCC1)C(C)[Se]c1ccccc1 (stereo not given)")
"> 100 µM (inactive)"
>>> measvalue("CC1=CCC(=O)[C@]2(C)C(CC(=O)O)[C@]3(C)C4=C(C)C(c5ccoc5)C[C@@H]4O[C@@H]3[C@H](O)[C@@H]12 (stereo not given in full)")
"> 100 µM (inactive)"

###

Tested on: HCT-116
Experiment: NCI tumour cell line growth inhibition, 48 h
The source made the active and inactive calls. Cut-off read from the data, not from the text of the source: active = GI50 up to about 1.1 µM and inactive = higher.
Below, each entry is listed alongside its reported GI50.
metricName: GI50

>>> measvalue("Cc1[nH]n(-c2nc(O)c(-c3ccccc3)c(=O)[nH]2)c(=O)c1CCO")
"> 100 µM (inactive)"
>>> measvalue("Cc1noc2cccc(OCc3ccccc3)c12")
"48.1 µM (inactive)"
>>> measvalue("O=C1/C(=C\\c2cccs2)Oc2ccccc21")
"60.4 µM (inactive)"
>>> measvalue("Cn1c(CC(O)c2nc3ccccc3n2C)nc2ccccc21 (centres undefined)")
"> 23.7 µM (inactive)"
>>> measvalue("CCCCNC(=O)N/C=C1\\C(=O)Oc2ccccc2C1=O")
"43.9 µM (inactive)"
>>> measvalue("COc1ccc([N+](=O)[O-])c2c(NCCCN(C)C)ccnc12")
"3.77 µM (inactive)"
>>> measvalue("COc1ccc(-c2c(C(C)=O)c(C)n(C3OC(COC(C)=O)C(OC(C)=O)C(OC(C)=O)C3OC(C)=O)c(=S)c2C#N)cc1 (centres undefined)")
"72.1 µM (inactive)"
>>> measvalue("CCOC(=O)Nc1ccc2c(c1)c(CCCCCCc1nc3ccccc3c3ccc(NC(=O)OCC)cc13)nc1ccccc12")
"54.3 µM (inactive)"
>>> measvalue("C=C(C)[C@@H]1CC[C@]2(CO)CC[C@]3(C)[C@H](CC[C@@H]4[C@@]5(C)CC[C@H](O)C(C)(C)[C@@H]5CC[C@]43C)[C@@H]12 [BETULIN]")
"30.8 µM (inactive)"
>>> measvalue("O=C1CC(NC(=O)C(F)(F)F)c2c(Br)sc(N3CCC(c4ccccc4)CC3)c21 (centres undefined)")
"11.1 µM (inactive)"
>>> measvalue("O=C(O)Cn1ncn(NC(=O)Cc2ccccc2)c1=S")
"> 10 µM (inactive)"
>>> measvalue("CC12CCC(C1)C(C)(C)C2OC(=O)c1ccccc1C(=O)O (centres undefined)")
"> 100 µM (inactive)"
>>> measvalue("COc1ccc(C2C3=C(COC3=O)OC(C)(C)Oc3cc4c(cc32)OCO4)cc1 (centres undefined)")
"25.4 µM (inactive)"
>>> measvalue("COC(=O)C(/C(=N/NC(=O)c1ccncc1)C(=O)Nc1ccccc1OC)c1nc2ccc(Cl)cc2nc1O (centres undefined)")
"83.4 µM (inactive)"

###

Test system: ACHN
Test: NCI tumour cell line growth inhibition, 48 h
Activity calls are given as the source filed them. Rule as the data show it: active = GI50 up to about 1.1 µM and inactive = higher.
Outcomes: y = active, n = inactive

>>> assignedcategory("CCOC(=O)/C(=C\\c1ccc(N(CCC#N)CCC#N)cc1)NC(=O)c1cc([N+](=O)[O-])ccc1Cl")
"n"
>>> assignedcategory("O=c1c(Br)cc2c(-c3ccccc3)c3cc(Br)c(O)c(Br)c3oc-2c1Br")
"n"
>>> assignedcategory("O=C(NCCC1CN(S(=O)(=O)C(F)(F)F)c2ccccc21)OCc1ccccc1 (stereo unspecified)")
"n"
>>> assignedcategory("S=c1cc(S)c2c(=S)sc3nc4ccccn4c(=S)c3c2s1")
"n"
>>> assignedcategory("CC1=CCC(=O)[C@]2(C)C(CC(=O)O)[C@]3(C)C4=C(C)C(c5ccoc5)C[C@@H]4O[C@@H]3[C@H](O)[C@@H]12 (stereo partly specified)")
"n"
>>> assignedcategory("CN1CN(c2ccccc2)C2(CCNCC2)C1=O")
"n"
>>> assignedcategory("Nc1c2cc3ccc2nc2ccc(cc12)OCCOCCOCCOCCOCCOCCO3")
"n"
>>> assignedcategory("CCCN1C(=O)C/C(=C\\C(C)=O)Nc2ccccc21")
"n"
>>> assignedcategory("COC1=CC(=O)c2c(cc3c(c2O)-c2c(OC)cc4cc5c(c(O)c4c2OC(=O)CC(C)(O)C3)C(=O)CC(C)(O)C5)C1=O (stereo unspecified)")
"n"
>>> assignedcategory("COc1cc(S(=O)(=O)Nc2ccc(-c3csc(N4C(=O)C(Cl)C4c4cccc(Oc5ccccc5)c4)n3)cc2)ccc1Cl (stereo unspecified)")
"n"
>>> assignedcategory("COc1ccc(N[S+]([O-])CCc2ccccc2)cc1 (stereo unspecified)")
"n"
>>> assignedcategory("O=CC(O)C(O)C(O)C(O)COC(=O)NCCCCC(=O)C(F)(F)C(F)(F)C(F)(F)C(F)(F)C(F)(F)C(F)(F)C(F)(F)F (stereo unspecified)")
"n"
>>> assignedcategory("CCCCCCCCCc1nn2c(Cc3ccccc3)nnc2s1")
"n"
>>> assignedcategory("COc1cccc(N(CN2C(=O)CCC2OC)C(C)=O)c1 (stereo unspecified)")
"n"
>>> assignedcategory("CC(=O)OCC1OC(n2c3c(c(-c4ccco4)c(C#N)c2=S)CCCC3)C(OC(C)=O)C(OC(C)=O)C1OC(C)=O (stereo unspecified)")
"n"
>>> assignedcategory("COC(=O)C(/C(=N/NC(=O)c1ccncc1)C(=O)Nc1ccccc1OC)c1nc2ccc(Cl)cc2nc1O (stereo unspecified)")
"n"
>>> assignedcategory("CCNC(=S)/N=c1\\sc(NCC)nc2sc3c(c12)CCN(N1CCc2c(sc4nc(NCC)s/c(=N\\C(=S)NCC)c24)C1)C3")
"n"
>>> assignedcategory("Cc1cc(C)c(-c2no/c(=N\\S(=O)(=O)c3ccc(Cl)cc3)o2)c(C)c1")
"n"
>>> assignedcategory("CN1N=C(c2ccccc2)c2cc(Cl)ccc2N=C1N/N=C/c1ccc(N(C)C)cc1")
"n"
>>> assignedcategory("Cc1ccc(NC(=O)OCC(COc2ccc(Cl)cc2)OC(=O)Nc2ccc(C)cc2)cc1 (stereo unspecified)")
"n"
>>> assignedcategory("Cc1[nH]n(-c2nc(O)c(-c3ccccc3)c(=O)[nH]2)c(=O)c1CCO")
"n"
>>> assignedcategory("CN(C)CC(O)CNC(=O)Nc1ccccc1 (stereo unspecified)")
"n"
>>> assignedcategory("CCCCOC(=O)NC(=O)c1cn(C2CCCCC2)c(=O)[nH]c1=O")
"n"
>>> assignedcategory("COc1ccc(C2CC(=O)Oc3ccccc3O2)cc1 (stereo unspecified)")
"n"
>>> assignedcategory("CN(C)CCN1C(=O)N(CCN(C)C)c2c3cc(O)ccc3nc3c([N+](=O)[O-])ccc1c23")
"n"
>>> assignedcategory("COc1cc(N(C)C)c(OC)cc1C=C1C=CC=C1")
"n"
>>> assignedcategory("CC(=O)O[C@H]1C(=O)[C@@]2(C)[C@H]([C@H](OC(=O)c3ccc(F)cc3)[C@]3(O)C[C@H](OC(=O)[C@H](O)[C@@H](NC(=O)c4ccccc4)c4ccccc4)C(C)=C1C3(C)C)[C@]1(OC(C)=O)CO[C@@H]1C[C@@H]2O")
"y"
>>> assignedcategory("CC(CCOc1ccc2ccc(=O)oc2c1)C1=CC(=O)C(C)(C)O1 (stereo unspecified)")
"n"
>>> assignedcategory("C=C(CC(=O)Nc1ccc(C(=O)OC)o1)C(=O)OC")
"n"
>>> assignedcategory("O=C(O)C1C2C=CC(O2)C1C(=O)NCc1ccncc1 (stereo unspecified)")
"n"
>>> assignedcategory("CC(=O)OCC1C(=O)OCC1C(=O)N1Cc2cc3ccccc3nc2C1 (stereo unspecified)")
"n"
>>> assignedcategory("CCN(CC)CCCNc1nncc2cc3c([nH]c4ccccc43)c(C)c12")
"n"
>>> assignedcategory("CCCCN(CCCC)CC(=O)c1ccc2cc(Cl)c3ccccc3c2c1")
"n"
>>> assignedcategory("CC[S+](C)c1ccc(-c2c3nc(c(-c4ccc([S+](C)CC)cc4)c4ccc([nH]4)c(-c4ccc([S+](C)CC)cc4)c4nc(c(-c5ccc([S+](C)CC)cc5)c5ccc2[nH]5)C=C4)C=C3)cc1.[O-][Cl+3]([O-])([O-])[O-].[O-][Cl+3]([O-])([O-])[O-].[O-][Cl+3]([O-])([O-])[O-].[O-][Cl+3]([O-])([O-])[O-] (stereo unspecified)")
"n"
>>> assignedcategory("COC(=O)c1ccc(Nc2nc3[nH]cnc3c(=O)[nH]2)cc1")
"n"
>>> assignedcategory("CC(C)=CCC/C(C)=C/C=C/C(C)=C/C1C[C@@]2(C(O)O1)[C@H](CCCO)/C(=C(/C)C=O)CC[C@]2(C)O (stereo partly specified)")
"n"
